# experimental.protocol: in vitro
# test.context: dog
measured.quantity: CC50 (µM)
The reply should be a number in µM, with the unit left off.

Q: // CC50 lookup, key: CC(N)C12CC3CC(CC(C3)C1)C2 (centres unmarked)
A: 472

---

# Test system: Herpes simplex virus-2 (G)
# experimental.protocol: microbe, parasite or virus in culture
# Format: cell-based
# test.context: Human alphaherpesvirus 2, HEL, read-out: EC50 Herpes simplex virus-2 (G)
pEC50: −log10 of the molar value.
measured.quantity: pEC50

Q: Lab request: please report pEC50 under test system Herpes simplex virus-2 (G) for NC(=O)c1ncn([C@@H]2O[C@H](CO)[C@@H](O)[C@H]2O)n1 [Ribavirin, reference compound]
A: < 3.60

---

# System: Vero cell cultures
# test.context: African green monkey
For each entry below, report its Minimum cytotoxic concentration value.
// return numeric value only (unit: µg/mL, not printed)

Q: Param readout = Minimum cytotoxic concentration; param system = Vero cell cultures; param query = COc1ccccc1/C=N/n1c(-c2ccccc2)nc2ccccc2c1=O ; response: value
A: 100

Q: Form entry - test system: Vero cell cultures; read-out: Minimum cytotoxic concentration; compound: COc1ccc(/C=N/n2c(-c3ccccc3)nc3ccccc3c2=O)cc1O
A: 100

Q: Please state recorded Minimum cytotoxic concentration (tested on Vero cell cultures) of COc1ccc(/C=N/n2c(-c3ccccc3)nc3ccccc3c2=O)cc1
A: 100

Q: Param readout= Minimum cytotoxic concentration; system= Vero cell cultures; entry= O=c1c2ccccc2nc(-c2ccccc2)n1/N=C/c1ccccc1O ; returns value.
A: 100

Q: Give Vero cell cultures Minimum cytotoxic concentration for O=c1c2ccccc2nc(-c2ccccc2)n1/N=C/c1ccc(O)cc1
A: 100

Q: Provide value of Minimum cytotoxic concentration for this record tested with Vero cell cultures: C/C(=N\n1c(-c2ccccc2)nc2ccccc2c1=O)c1ccccc1
A: 100

---

# Test system: HEL cell cultures
# test.context: human
measured.quantity: Minimum cytotoxic concentration

Q: Consider the molecule shown here: COc1ccc(/C=N/n2c(-c3ccccc3)nc3ccccc3c2=O)cc1O What is its recorded Minimum cytotoxic concentration?
A: 100 µg/mL

Q: What value of Minimum cytotoxic concentration has been reported for the following molecule? O=c1c2ccccc2nc(-c2ccccc2)n1/N=C/c1cccc([N+](=O)[O-])c1
A: ≥20 µg/mL

Q: Which Minimum cytotoxic concentration value is on record for COc1ccccc1/C=N/n1c(-c2ccccc2)nc2ccccc2c1=O ?
A: 100 µg/mL

Q: Which Minimum cytotoxic concentration value belongs to O=c1c2ccccc2nc(-c2ccccc2)n1/N=C/c1ccc(O)cc1 ?
A: 100 µg/mL

Q: Could you share which Minimum cytotoxic concentration value was measured for Nc1nc(O)c2ncn(COC(CO)CO)c2n1 [Ganciclovir, reference compound] ?
A: >100 µM

Q: # get_value(readout='Minimum cytotoxic concentration', item= O=c1c2ccccc2nc(-c2ccccc2)n1/N=C/c1ccc(Cl)cc1 )
A: 100 µg/mL

Q: # query: Minimum cytotoxic concentration of entry O=c1c2ccccc2nc(-c2ccccc2)n1/N=C/c1ccccc1O
A: 100 µg/mL

Q: Please report the recorded Minimum cytotoxic concentration for C/C(=N\n1c(-c2ccccc2)nc2ccccc2c1=O)c1ccc(O)cc1 .
A: >100 µg/mL

Q: Item under review: C/C(=N\n1c(-c2ccccc2)nc2ccccc2c1=O)c1ccccc1 . Reported Minimum cytotoxic concentration?
A: >100 µg/mL

---

# Test system: Vesicular stomatitis virus
# experimental.protocol: microbe, parasite or virus in culture
# Assay type: cell-based
# test.context: HEL, read-out: EC50 Vesicular stomatitis virus
measured.quantity: EC50

Q: Param readout= EC50; system= Vesicular stomatitis virus; entry= Nc1nc(O)c2ncn(COC(CO)CO)c2n1 [Ganciclovir, reference compound] ; returns value.
A: > 100 µM
